Cited source: the supplement of paper PMC10567573

B1: MATN2 (parent)
chain: FIVDILQFLDIGPDVTRVGLLQYG

- Variants of: B1
- ASSAY TEXT: protein stability index of a GFP-peptide fusion (GPS, HEK-293T) (PSI 1-6); higher = more stable;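 note: lentivirally expressed fusions sorted by FACS into six bins by GFP to DsRed ratio, PSI derived from sequencing read proportions per bin multiplied by bin number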
- PARTICULARS: c terminus: a fixed tail appended
Decide by protein stability index: equal to or exceeding 3 means class 1, less means class 0.

>  <VARIANT ID>
L9K

>  <DISCRETE LABEL>
class 0

$$$$
>  <VARIANT ID>
G12N

>  <DISCRETE LABEL>
class 1

$$$$
>  <VARIANT ID>
V15L

>  <DISCRETE LABEL>
class 0

$$$$
>  <VARIANT ID>
F1P

>  <DISCRETE LABEL>
class 0

$$$$
>  <VARIANT ID>
D4Q

>  <DISCRETE LABEL>
class 0

$$$$

Incoming: Is it the case that `G12F` has protein stability index reaching or exceeding 3?
Outgoing: class 0

Incoming: Subsequent entry: `T16R`
Outgoing: class 0

Incoming: Subsequent entry: `F8G`
Outgoing: class 1

Incoming: Subsequent entry: `F8N`
Outgoing: class 0

Incoming: Subsequent entry: `T16W`
Outgoing: class 1

Incoming: Subsequent entry: `G24E`
Outgoing: class 0

Incoming: Subsequent entry: `G19C`
Outgoing: class 0

Incoming: Subsequent entry: `Y23R`
Outgoing: class 1

Incoming: Subsequent entry: `I11H`
Outgoing: class 1

Incoming: Subsequent entry: `D14A`
Outgoing: class 0

Incoming: Subsequent entry: `D14I`
Outgoing: class 1

Incoming: Subsequent entry: `G19I`
Outgoing: class 0

Incoming: Subsequent entry: `I5Y`
Outgoing: class 1

Incoming: Subsequent entry: `G19W`
Outgoing: class 0

Incoming: Subsequent entry: `V3K`
Outgoing: class 0

Incoming: Subsequent entry: `D14H`
Outgoing: class 0

Incoming: Subsequent entry: `P13M`
Outgoing: class 0

Incoming: Subsequent entry: `V18K`
Outgoing: class 0

Incoming: Subsequent entry: `F8T`
Outgoing: class 1

Incoming: Subsequent entry: `L9P`
Outgoing: class 1

Incoming: Subsequent entry: `F8I`
Outgoing: class 0

Incoming: Subsequent entry: `L21C`
Outgoing: class 1

Incoming: Subsequent entry: `V18N`
Outgoing: class 0

Incoming: Subsequent entry: `Y23M`
Outgoing: class 0

Incoming: Subsequent entry: `D4L`
Outgoing: class 0
